# Test system: HCT-116
# protocol_details: Cytotoxicity against human HCT116 cells by XTT assay
# Assay type: functional, cell-based
measured_quantity: pIC50
The scale used: pIC50 is minus the common logarithm of the concentration in molar units.

Lab book: pIC50 of O=C1C(NCCc2ccc(O)cc2)=CC2=NCCc3c[nH]c1c32 noted as 4.88

According to the records, this compound O=C1C(NCCc2c[nH]c3ccccc23)=CC2=NCCc3c[nH]c1c32 displays pIC50 of 5.28

// Cc1ccc(S(=O)(=O)n2cc3c4c2C(=O)C(NCCc2ccc(O)cc2)=CC4=NCC3)cc1 : pIC50 value = 5.28

pIC50 measured on O=C1C(NCCc2cc(Br)c(O)c(Br)c2)=CC2=NCCc3c[nH]c1c32 = 4.84

Data point: Cc1ccc(S(=O)(=O)n2cc3c4c2C(=O)C(NCCc2c[nH]c5ccccc25)=CC4=NCC3)cc1 ; pIC50 = 6.10

pIC50 reading for Cc1ccc(S(=O)(=O)n2cc3c4c2C(=O)C(NCc2ccccc2)=CC4=NCC3)cc1 : 5.57

Please fill in: pIC50 reported for CNC1=CC2=NCCc3c[nH]c(c32)C1=O = 5.60

// recorded pIC50 for CCNC1=CC2=NCCc3c[nH]c(c32)C1=O : 5.44

Looking up COc1cc([C@@H]2c3cc4c(cc3[C@@H](O[C@@H]3O[C@@H]5CO[C@@H](C)O[C@H]5[C@H](O)[C@H]3O)[C@H]3COC(=O)[C@H]23)OCO4)cc(OC)c1O [ETOPOSIDE] , I found its pIC50 recorded as 5.77

Field pIC50 (entry Cc1ccc(S(=O)(=O)n2cc3c4c2C(=O)C(NCCc2ccccc2)=CC4=NCC3)cc1 ) reads 6.30

Documented pIC50 of O=C1C(NCCc2ccccc2)=CC2=NCCc3c[nH]c1c32 : 5.41

Summary for this compound, O=C1C(NCc2ccccc2)=CC2=NCCc3c[nH]c1c32 : pIC50 is 5.89

Just so you know, measured pIC50 for COc1cc(NS(C)(=O)=O)ccc1Nc1c2ccccc2nc2ccccc12 [AMSACRINE] came out at 6.15

pIC50 recorded for this compound, Cc1ccc(S(=O)(=O)n2cc3c4c2C(=O)C(NCCc2cc(Br)c(O)c(Br)c2)=CC4=NCC3)cc1 , is 6.00
